ASSAY_SUMMARY: drug combination growth inhibition, ovarian cancer – cell-based, oncology-focused library, rucaparib conditional, profiling panel (AID 1508598)
TEST_SETTINGS: patient-derived ovarian cancer cells, CellTiter-Glo viability, 144 h; at 0.0781 µM; OCI-P5x cells; without rucaparib; stronger effect = lower value
OUTCOME_MEASURE: viability (%)
Note: unit % is implicit; provide only the numeric part.

compound=O=C(/C=C/c1ccc2ccccc2n1)c1ccncc1 outcome_measure=viability output_unit=% test_result=15.5
compound="CC(C)CC(CC(=O)NO)C(=O)N[C@@H](Cc1ccc2ccccc2c1)C(=O)N[C@@H](C)C(=O)NCCN (stereo partly drawn)" outcome_measure=viability output_unit=% test_result=92.6

The record that follows has no viability shown yet.
// query viability value for entry Cc1cc(C)c(-c2csc(NC(=O)c3ccccc3)n2)c(C)c1 102

* * *

ASSAY_SUMMARY: drug combination growth inhibition, ovarian cancer – cell-based, oncology-focused library, rucaparib conditional, profiling panel (AID 1508598)
TEST_SETTINGS: patient-derived ovarian cancer cells, CellTiter-Glo viability, 144 h; at 0.0781 µM; OCI-P5x cells; with rucaparib 20 µM; 100% = cells with rucaparib alone
Active and inactive are the calls of the source.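 Rule for the calls: active = normalized viability below 100% at a tested concentration; inactive = the rest.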
// one of true (1) (active), false (0) (inactive), no free text

compound=O=C1[C@H](CC[C@H](O)c2ccc(F)cc2)[C@H](c2ccc(O)cc2)N1c1ccc(F)cc1 class="true (1)"
compound=Cc1cc(NC(=O)c2cccc(NC(=O)/C=C/CN(C)C)c2)ccc1Nc1nccc(-c2cccnc2)n1 class="false (0)"
compound=COc1cccc2c1C(=O)c1c(O)c3c(c(O)c1C2=O)C[C@@](O)(C(=O)CO)C[C@H]3O[C@H]1C[C@H](N)[C@@H](O)[C@H](C)O1 class="true (1)"

Entry CN(C)CCSSCCNC(=O)C1CCN(C(=O)CSc2ccc(Cl)cc2)CC1 : call = ? false (0)

Entry CC(=O)[C@]1(O)Cc2c(O)c3c(c(O)c2[C@H](O[C@H]2C[C@H](N)[C@H](O)[C@H](C)O2)C1)C(=O)c1ccccc1C3=O : call = ? true (1)

Entry Cc1cc(C)c(S(=O)(=O)n2cc(C)cc2C)c(C)c1 : call = ? true (1)

* * *

ASSAY_SUMMARY: viability loss with induced miR-34 in A549 – imaging, A549 dox-inducible miR-34, nuclei and caspase counts, primary screen (AID 1347080)
TEST_SETTINGS: A549 miR-34 inducible, Hoechst nuclei count, 48 h; measured here: relative caspase fold change +Dox/-Dox
OUTCOME_MEASURE: fold change
Answer as a number with no unit attached.

compound=COc1ccc2c(C(=O)N(C)Cc3nonc3C)cc(-c3cnn(C)c3)nc2c1 test_result=1.42
compound=O=C(Nc1ccc2[nH]ncc2c1)C1CCC1 test_result=1.17
compound="C[C@]12C=CC(=O)C=C1CC[C@@H]1[C@H]2C(O)C[C@@]2(C)[C@H]1CC[C@@]2(O)C(=O)CO (stereo partly specified)" test_result=1.24
compound=CC(C)CN(C[C@H](O)[C@@H](Cc1ccccc1)NC(=O)O[C@@H]1CO[C@H]2OCC[C@H]21)S(=O)(=O)c1ccc(N)cc1 test_result=0.791
compound=CCN(Cc1nccn1C)C(=O)c1cc(-c2cnc(C)nc2)nc2cc(F)ccc12 test_result=1.32

// query fold change value for entry C#C[C@]1(O)CC[C@H]2[C@@H]3CCC4=CC(=O)CC[C@@H]4[C@@H]3CC[C@@]21C 0.775
